System: HOP-62 NSCLC
Assay: NCI-60 one-dose screen, 48 h (100 = growth as untreated, 0 = no growth, -100 = all killed)
Details: 10 µM unless noted
Compounds without any hit were thinned out: in the full panel of roughly 83,000, 20% have a hit. The source made the active and inactive calls. How the source made its calls: active means growth percent below 10; inactive means the rest.
measure: growth

compound	assayedSystem	growth
CCCCCCCCCCCCCCCCCCOc1ccccc1CC(=O)NCC[N+]1(C)CCOCC1	HOP-62 NSCLC	53% (inactive)
COC(=O)Cc1nc(C#N)c(N(C)C)o1	HOP-62 NSCLC	96.7% (inactive)
N=c1c2c(=N)n3c(nc2nc2n1-c1ccccc1Sc1ccccc1-2)sc1cc(Cl)ccc13	HOP-62 NSCLC	76.8% (inactive)
N#C/C(=C\c1ccc(-c2ccc(Cl)cc2)o1)c1ccc(Cl)cc1	HOP-62 NSCLC	46.8% (inactive)
N=C(N)SCc1cccc2c(CSC(=N)N)cccc12	HOP-62 NSCLC	95.1% (inactive)
CCCCCCCCCCCCCCCCOC(=O)c1c(C)[nH]c(/C=C2\N=C(c3ccc[nH]3)C=C2OC)c1C	HOP-62 NSCLC	54.2% (inactive)
CC(C)(CO)N(CCO)CCO	HOP-62 NSCLC	110% (inactive)
CC/C=C1/C(=O)C=C[C@@H]1C/C=C\CCCC(=O)OC	HOP-62 NSCLC	90.5% (inactive)

Provide growth for all items below, preserving their order.
1. CCCCCCCCn1ccc2cc(NC(=O)Cn3cc(CN4CCOCC4)nn3)ccc21
2. O=C1Nc2ccc(F)cc2/C1=C\c1nc(-c2ccccc2F)n2ccccc12
3. Clc1ccc(-c2nc(-c3c[nH]c4ncccc34)cs2)cc1
4. CC1(C)C2CC=C(/C=N/NC(=O)C3CCC(=O)N3)C1C2 (configuration not stated)
5. CCN(CC)CCOc1nc2c3ccc(Cl)cc3nn2c2ccccc12
6. COC1=CC(c2ccc[nH]2)=N/C1=C\c1[nH]c(C)c(CC(=O)OCc2ccccc2)c1C
7. O=C(CSc1nnc2sc(Nc3cccc(Cl)c3)nn12)c1ccc(F)cc1

1. 113% (inactive)
2. 94.4% (inactive)
3. 6.83% [100 µM] (active)
4. 110% (inactive)
5. 42.3% (inactive)
6. 1.96% (active)
7. 97.7% (inactive)

Provide growth for all items below, preserving their order.
1. S=c1ssnc1-c1cccs1
2. CCCCCCCCCCCCCCCCCCOc1ccccc1CC(=O)OCC[N+]1(C)CCOCC1
3. Cc1ccc(/C=C(\C#N)C(=O)Nc2ncc(Cc3cc(Cl)ccc3Cl)s2)o1
4. O=C(Cn1nnc2ccccc21)N/N=C/c1ccccc1F
5. Cn1cc(C(=O)c2nc(-c3c[nH]c4ccc(Br)cc34)no2)c2cc(Br)ccc21
6. C=C1C(=O)O[C@H]2[C@H]1CC/C(COC(=O)NCCCCCCCCNC(=O)OC/C1=C/CC[C@@]3(C)O[C@H]3[C@H]3OC(=O)C(=C)[C@@H]3CC1)=C\CC[C@@]1(C)O[C@@H]21
7. N#Cc1c(Nc2ccc(F)cc2)n[nH]c1-c1cccs1

1. 103% (inactive)
2. 55.6% (inactive)
3. 41.6% (inactive)
4. 102% (inactive)
5. 78.4% (inactive)
6. -38.2% (active)
7. 110% (inactive)

----------
System: HOP-92 NSCLC
Test: NCI-60 one-dose screen, 48 h
Details: 10 µM unless noted
The panel holds about 83,000 compounds, 20% with a hit somewhere; the sample as a whole holds those more often. Activity calls are given as the source filed them. The calls were made as follows: active = growth percent below 10; inactive = the rest.
Could you please pick one outcome from this set? class 1 for active, class 0 for inactive

What is the recorded call for this compound in the test? CCCCCCCCn1ccc2cc(NC(=O)Cn3cc(CN4CCC(C)CC4)nn3)ccc21
class 0

What is the recorded call for this compound in the test? O=P(O)(O)OCC1OC(n2cnc3c(NCc4ccccc4)ncnc32)C(O)C1O (configuration not stated)
class 0
